The entries below come with measured pIC50 values attached.
# system_under_test: CDK2/CycE (Homo sapiens (Human), UniProt P24941)
# test_method_notes: CDK2/CycE kinase assay (Method 2)
# run_parameters: 10 μM ATP
# pIC50 = -log10(concentration in molar units)

Previously resolved entries follow.
>>> df
                                   compound   val
0  CS(=O)(Cc1cc(Nc2ncc(F)c(-c3ccc(F)cc3F)n2)cc(C(F)(F)F)c1)=NC#N (single isomer, unassigned) [Example 2]  5.92
1  Cc1cc(CS(C)(=O)=NC#N)cc(Nc2ncc(F)c(-c3ccc(F)cc3F)n2)c1 (single isomer, unassigned) [Example 36]  6.40
2  CS(=N)(=O)Cc1cc(Br)cc(Nc2ncc(F)c(-c3ccc(F)cc3F)n2)c1 (racemic) [Example 19]  6.42
3  CS(=O)(Cc1cc(Nc2ncc(F)c(-c3ccc(F)cc3F)n2)cc(C(F)(F)F)c1)=NC(N)=O (single isomer, unassigned) [Example 24]  6.17
4  CS(=O)(Cc1cc(Nc2ncc(F)c(-c3ccc(F)cc3F)n2)cc(S(F)(F)(F)(F)F)c1)=NC#N (single isomer, unassigned) [Example 29]  6.03

For the next question, use this compound.
Which pIC50 value is on record for Cc1cc(CS(C)(=O)=NC#N)cc(Nc2ncc(F)c(-c3ccc(F)cc3F)n2)c1 (racemic) [Example 16] ?
6.33

---

# Test system: HeLa, human cervical tumour cells
# test_method_notes: Proliferation assay, HeLa (Method 3)
# Format: cell-based
# run_parameters: Homo sapiens, 96 h, 4 days, crystal violet, read-out: Inhibition of HeLa cell proliferation IC50
Where a name gives a salt, the structure may show the parent alone.
assay_readout: IC50

Previously resolved entries follow.
                                   compound      val
0  CS(=O)(Cc1cc(Nc2ncc(F)c(-c3ccc(F)cc3F)n2)cc(S(F)(F)(F)(F)F)c1)=NC(N)=O (single isomer, unassigned)   278 nM
1  CS(=N)(=O)Cc1cc(Nc2ncc(F)c(-c3ccc(F)cc3F)n2)cc(S(F)(F)(F)(F)F)c1 (single isomer, unassigned)   501 nM
2  Cc1cc(CS(C)(=O)=NC#N)cc(Nc2ncc(F)c(-c3ccc(F)cc3F)n2)c1 (racemic)   850 nM
3  CS(=O)(Cc1cc(Nc2ncc(F)c(-c3ccc(F)cc3F)n2)cc(C(F)(F)F)c1)=NC#N (racemic) [Example 1]   440 nM
4  CS(=N)(=O)Cc1cc(Cl)cc(Nc2ncc(F)c(-c3ccc(F)cc3F)n2)c1 (racemic)  2210 nM
5  CS(=N)(=O)Cc1cc(Nc2ncc(F)c(-c3ccc(F)cc3F)n2)cc(C(F)(F)F)c1 (single isomer, unassigned) [Example 5]   840 nM
6  CS(=N)(=O)Cc1cc(F)cc(Nc2ncc(F)c(-c3ccc(F)cc3F)n2)c1 (single isomer, unassigned) [Example 12]  1940 nM
7  CS(=O)(Cc1cc(Cl)cc(Nc2ncc(F)c(-c3ccc(F)cc3F)n2)c1)=NC#N (racemic)  1020 nM
8  CS(=O)(Cc1cc(Nc2ncc(F)c(-c3ccc(F)cc3F)n2)cc(S(F)(F)(F)(F)F)c1)=NC#N (racemic)   262 nM
9  Cc1cc(CS(C)(=N)=O)cc(Nc2ncc(F)c(-c3ccc(F)cc3F)n2)c1 (single isomer, unassigned) [Example 37]  1080 nM

Could you share what IC50 was measured for COCCS(=O)(Cc1cc(Nc2ncc(F)c(-c3ccc(F)cc3F)n2)cc(C(F)(F)F)c1)=NC#N (racemic) , tested on HeLa, human cervical tumour cells?
900 nM

Could you share what IC50 was measured for COc1cc(CS(C)(=O)=NC#N)cc(Nc2ncc(F)c(-c3ccc(F)cc3F)n2)c1 (racemic) , tested on HeLa, human cervical tumour cells?
320 nM

Could you share what IC50 was measured for CS(=N)(=O)Cc1cc(Br)cc(Nc2ncc(F)c(-c3ccc(F)cc3F)n2)c1 (racemic) [Example 19] , tested on HeLa, human cervical tumour cells?
1600 nM

Could you share what IC50 was measured for Cc1cc(CS(C)(=N)=O)cc(Nc2ncc(F)c(-c3ccc(F)cc3F)n2)c1 (racemic) [Example 17] , tested on HeLa, human cervical tumour cells?
1360 nM

Could you share what IC50 was measured for CCOC(=O)N=S(C)(=O)Cc1cccc(Nc2ncc(F)c(-c3ccc(F)cc3F)n2)c1 (racemic) , tested on HeLa, human cervical tumour cells?
4470 nM

Could you share what IC50 was measured for CS(=N)(=O)Cc1cc(Nc2ncc(F)c(-c3ccc(F)cc3F)n2)cc(C(F)(F)F)c1 (racemic) [Example 4] , tested on HeLa, human cervical tumour cells?
960 nM

Could you share what IC50 was measured for COc1cc(CS(C)(=N)=O)cc(Nc2ncc(F)c(-c3ccc(F)cc3F)n2)c1 (racemic) , tested on HeLa, human cervical tumour cells?
780 nM

Could you share what IC50 was measured for N=S(=O)(CCN)Cc1cc(Nc2ncc(F)c(-c3ccc(F)cc3F)n2)cc(C(F)(F)F)c1 (racemic) [Example 25, trifluoroacetate] , tested on HeLa, human cervical tumour cells?
2210 nM

Could you share what IC50 was measured for CS(=N)(=O)Cc1cc(F)cc(Nc2ncc(F)c(-c3ccc(F)cc3F)n2)c1 (racemic) [Example 11] , tested on HeLa, human cervical tumour cells?
1320 nM

Could you share what IC50 was measured for CS(=O)(Cc1cc(Nc2ncc(F)c(-c3ccc(F)cc3F)n2)cc(C(F)(F)F)c1)=NC(N)=O (racemic) , tested on HeLa, human cervical tumour cells?
470 nM

Could you share what IC50 was measured for CS(=N)(=O)Cc1cc(Br)cc(Nc2ncc(F)c(-c3ccc(F)cc3F)n2)c1 (single isomer, unassigned) [Example 42] , tested on HeLa, human cervical tumour cells?
1060 nM

Could you share what IC50 was measured for CS(=O)(Cc1cc(F)cc(Nc2ncc(F)c(-c3ccc(F)cc3F)n2)c1)=NC#N (racemic) , tested on HeLa, human cervical tumour cells?
1050 nM

Could you share what IC50 was measured for CS(=O)(Cc1cc(Br)cc(Nc2ncc(F)c(-c3ccc(F)cc3F)n2)c1)=NC#N (single isomer, unassigned) , tested on HeLa, human cervical tumour cells?
1060 nM

Could you share what IC50 was measured for CS(=O)(Cc1cc(Nc2ncc(F)c(-c3ccc(F)cc3F)n2)cc(C(F)(F)F)c1)=NC#N (single isomer, unassigned) [Example 2] , tested on HeLa, human cervical tumour cells?
350 nM
